Quick reference: ID50 [nM] (inhibition of N-acetyl-beta-D-glucosaminidase release from C5aR-RBL cells) of the listed items.
- test_target: T1, human C5a receptor (human, UniProt P21730 1-350)
- T1 sequence (looked up): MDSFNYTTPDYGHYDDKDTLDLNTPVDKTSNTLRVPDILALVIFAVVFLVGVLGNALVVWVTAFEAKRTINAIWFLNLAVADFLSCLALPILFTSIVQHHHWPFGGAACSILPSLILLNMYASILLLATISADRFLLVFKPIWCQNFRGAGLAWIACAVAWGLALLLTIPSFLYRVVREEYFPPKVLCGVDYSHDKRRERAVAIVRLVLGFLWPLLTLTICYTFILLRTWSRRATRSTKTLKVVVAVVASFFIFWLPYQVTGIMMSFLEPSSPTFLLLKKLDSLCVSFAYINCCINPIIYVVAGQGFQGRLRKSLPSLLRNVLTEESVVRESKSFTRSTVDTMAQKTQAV
- experimental_details: cell-based or functional assay
readout: ID50 [nM] (inhibition of N-acetyl-beta-D-glucosaminidase release from C5aR-RBL cells) (nM)

binder	measured_number
C5a-(1-66,Cys27Ala)-A8B-Leu70-Tyr73 (ligand, also called 67-FKRLLLY-73) TLQKKIEEIAAKYKHSVVKKCCYDGAAVNNDETCEQRAARISLGPRCIKAFTECCVVASQLRANISFKRLLLY	8.8
C5a-(1-66,Cys27Ala)-A8B (ligand, Mutein of human C5a, expressed in the E. coli periplasm without a fusion partner and purified on mAb 561; also called C5aRA A8B; mutein A8B) TLQKKIEEIAAKYKHSVVKKCCYDGAAVNNDETCEQRAARISLGPRCIKAFTECCVVASQLRANISFKRSLLR	22.3
C5a-(1-66,Cys27Ala)-A8B-Del.71-73 (ligand, also called C5a-(1-66, Cys27Ala)-FKRS-70; 67-FKRS-70) TLQKKIEEIAAKYKHSVVKKCCYDGAAVNNDETCEQRAARISLGPRCIKAFTECCVVASQLRANISFKRS	17.4
C5a-(1-66,Cys27Arg)-A8B (ligand, also called A8B-Arg27; A8B Arg 27) TLQKKIEEIAAKYKHSVVKKCCYDGARVNNDETCEQRAARISLGPRCIKAFTECCVVASQLRANISFKRSLLR	17.5
